test: Pharmacokinetic assay in rat; conditions: male SD rats, i.g. 20 mg/kg in 10% PEG400, parent 3 measured
I'd appreciate it if you could supply Cmax values for the items below.
Note: unit ng/mL is implicit; provide only the numeric part.

Return Cmax for the following compound: Cc1c(COC(=O)CN)c(=O)oc2c3c(ccc12)OC(C)(C)[C@H](OC(=O)[C@@]12CCC(C)(C(=O)O1)C2(C)C)[C@@H]3OC(=O)[C@@]12CCC(C)(C(=O)O1)C2(C)C (relative stereo) [Compound 9]
163.6

Return Cmax for the following compound: Cc1c(COC(=O)CCC(=O)O)c(=O)oc2c3c(ccc12)OC(C)(C)[C@H](OC(=O)[C@@]12CC[C@@](C)(C(=O)O1)C2(C)C)[C@@H]3OC(=O)[C@@]12CC[C@@](C)(C(=O)O1)C2(C)C (relative stereo) [Compound 8]
398.5

Return Cmax for the following compound: Cc1c(COC(=O)C(N)CC(C)C)c(=O)oc2c3c(ccc12)OC(C)(C)[C@H](OC(=O)[C@@]12CCC(C)(C(=O)O1)C2(C)C)[C@@H]3OC(=O)[C@@]12CCC(C)(C(=O)O1)C2(C)C (relative stereo) [Compound 12]
529.0

Return Cmax for the following compound: Cc1c(COC(=O)CCC(=O)O)c(=O)oc2c3c(ccc12)OC(C)(C)[C@H](OC(=O)[C@@]12CC[C@@](C)(C(=O)O1)C2(C)C)[C@@H]3OC(=O)[C@@]12CC[C@@](C)(C(=O)O1)C2(C)C (relative stereo) [Compound 6]
80.9

Return Cmax for the following compound: Cc1c(CO)c(=O)oc2c3c(ccc12)OC(C)(C)[C@H](OC(=O)C12CCC(C)(C(=O)O1)C2(C)C)[C@@H]3OC(=O)C12CCC(C)(C(=O)O1)C2(C)C (stereo partly shown) [Compound 3, 3-hydroxymethyl-4-methyl-DCK]
530.7

Return Cmax for the following compound: Cc1c(COC(=O)C(C)N)c(=O)oc2c3c(ccc12)OC(C)(C)[C@H](OC(=O)[C@@]12CCC(C)(C(=O)O1)C2(C)C)[C@@H]3OC(=O)[C@@]12CCC(C)(C(=O)O1)C2(C)C (relative stereo) [Compound 10]
621.5

Return Cmax for the following compound: Cc1c(COC(=O)CN)c(=O)oc2c3c(ccc12)OC(C)(C)[C@H](OC(=O)[C@@]12CCC(C)(C(=O)O1)C2(C)C)[C@@H]3OC(=O)[C@@]12CCC(C)(C(=O)O1)C2(C)C.Cl (relative stereo) [Compound 13]
191.1

----------
experiment: Pharmacokinetic assay in rat; conditions: male SD rats, i.g. 20 mg/kg in 10% PEG400, parent 3 measured
READOUT KIND: CL
Answers without a unit are incomplete; give the number and then its unit.

Return CL for the following molecule: Cc1c(COC(=O)CCC(=O)O)c(=O)oc2c3c(ccc12)OC(C)(C)[C@H](OC(=O)[C@@]12CC[C@@](C)(C(=O)O1)C2(C)C)[C@@H]3OC(=O)[C@@]12CC[C@@](C)(C(=O)O1)C2(C)C (relative stereo) [Compound 8]
0.567 ± 0.067 mL/min/kg

Return CL for the following molecule: Cc1c(COC(=O)C(N)CC(C)C)c(=O)oc2c3c(ccc12)OC(C)(C)[C@H](OC(=O)[C@@]12CCC(C)(C(=O)O1)C2(C)C)[C@@H]3OC(=O)[C@@]12CCC(C)(C(=O)O1)C2(C)C (relative stereo) [Compound 12]
0.433 ± 0.083 mL/min/kg

Return CL for the following molecule: Cc1c(COC(=O)CCC(=O)O)c(=O)oc2c3c(ccc12)OC(C)(C)[C@H](OC(=O)[C@@]12CC[C@@](C)(C(=O)O1)C2(C)C)[C@@H]3OC(=O)[C@@]12CC[C@@](C)(C(=O)O1)C2(C)C (relative stereo) [Compound 6]
1.7 ± 0.333 mL/min/kg

Return CL for the following molecule: Cc1c(CO)c(=O)oc2c3c(ccc12)OC(C)(C)[C@H](OC(=O)C12CCC(C)(C(=O)O1)C2(C)C)[C@@H]3OC(=O)C12CCC(C)(C(=O)O1)C2(C)C (stereo partly shown) [Compound 3, 3-hydroxymethyl-4-methyl-DCK]
0.333 ± 0.083 mL/min/kg

Return CL for the following molecule: Cc1c(COC(=O)C(C)N)c(=O)oc2c3c(ccc12)OC(C)(C)[C@H](OC(=O)[C@@]12CCC(C)(C(=O)O1)C2(C)C)[C@@H]3OC(=O)[C@@]12CCC(C)(C(=O)O1)C2(C)C (relative stereo) [Compound 10]
0.267 ± 0.12 mL/min/kg

Return CL for the following molecule: Cc1c(COC(=O)CN)c(=O)oc2c3c(ccc12)OC(C)(C)[C@H](OC(=O)[C@@]12CCC(C)(C(=O)O1)C2(C)C)[C@@H]3OC(=O)[C@@]12CCC(C)(C(=O)O1)C2(C)C (relative stereo) [Compound 9]
0.617 ± 0.017 mL/min/kg

Return CL for the following molecule: Cc1c(COC(=O)CN)c(=O)oc2c3c(ccc12)OC(C)(C)[C@H](OC(=O)[C@@]12CCC(C)(C(=O)O1)C2(C)C)[C@@H]3OC(=O)[C@@]12CCC(C)(C(=O)O1)C2(C)C.Cl (relative stereo) [Compound 13]
0.667 ± 0.167 mL/min/kg

----------
assay: Pharmacokinetic assay in rat; details: male SD rats, i.g. 20 mg/kg in 10% PEG400, parent 3 measured
READOUT KIND: Tmax
Answers without a unit are incomplete; give the number and then its unit.

Return Tmax for the following molecule: Cc1c(COC(=O)C(N)CC(C)C)c(=O)oc2c3c(ccc12)OC(C)(C)[C@H](OC(=O)[C@@]12CCC(C)(C(=O)O1)C2(C)C)[C@@H]3OC(=O)[C@@]12CCC(C)(C(=O)O1)C2(C)C (relative stereo)
30 min

Return Tmax for the following molecule: Cc1c(COC(=O)C(C)N)c(=O)oc2c3c(ccc12)OC(C)(C)[C@H](OC(=O)[C@@]12CCC(C)(C(=O)O1)C2(C)C)[C@@H]3OC(=O)[C@@]12CCC(C)(C(=O)O1)C2(C)C (relative stereo)
45 min

Return Tmax for the following molecule: Cc1c(COC(=O)CN)c(=O)oc2c3c(ccc12)OC(C)(C)[C@H](OC(=O)[C@@]12CCC(C)(C(=O)O1)C2(C)C)[C@@H]3OC(=O)[C@@]12CCC(C)(C(=O)O1)C2(C)C (relative stereo)
15 min

----------
assay: Pharmacokinetic assay in rat; conditions: male SD rats, i.g. 20 mg/kg in 10% PEG400, parent 3 measured
READOUT KIND: Vd (L/kg)
Note: unit L/kg is implicit; provide only the numeric part.

Return Vd for the following compound: Cc1c(COC(=O)CN)c(=O)oc2c3c(ccc12)OC(C)(C)[C@H](OC(=O)[C@@]12CCC(C)(C(=O)O1)C2(C)C)[C@@H]3OC(=O)[C@@]12CCC(C)(C(=O)O1)C2(C)C.Cl (relative stereo)
0.123

Return Vd for the following compound: Cc1c(COC(=O)CCC(=O)O)c(=O)oc2c3c(ccc12)OC(C)(C)[C@H](OC(=O)[C@@]12CC[C@@](C)(C(=O)O1)C2(C)C)[C@@H]3OC(=O)[C@@]12CC[C@@](C)(C(=O)O1)C2(C)C (relative stereo) [Compound 6]
0.669

Return Vd for the following compound: Cc1c(CO)c(=O)oc2c3c(ccc12)OC(C)(C)[C@H](OC(=O)C12CCC(C)(C(=O)O1)C2(C)C)[C@@H]3OC(=O)C12CCC(C)(C(=O)O1)C2(C)C (stereo partly drawn) [Compound 3, 3-hydroxymethyl-4-methyl-DCK]
0.079

----------
assay: Pharmacokinetic assay in rat; details: male SD rats, i.g. 20 mg/kg in 10% PEG400, parent 3 measured
I'd appreciate it if you could supply Vd values for the items below.
Note: unit L/kg is implicit; provide only the numeric part.

Return Vd for the following compound: Cc1c(COC(=O)CCC(=O)O)c(=O)oc2c3c(ccc12)OC(C)(C)[C@H](OC(=O)[C@@]12CC[C@@](C)(C(=O)O1)C2(C)C)[C@@H]3OC(=O)[C@@]12CC[C@@](C)(C(=O)O1)C2(C)C (relative stereo) [Compound 8]
0.102

Return Vd for the following compound: Cc1c(COC(=O)C(N)CC(C)C)c(=O)oc2c3c(ccc12)OC(C)(C)[C@H](OC(=O)[C@@]12CCC(C)(C(=O)O1)C2(C)C)[C@@H]3OC(=O)[C@@]12CCC(C)(C(=O)O1)C2(C)C (relative stereo) [Compound 12]
0.049

Return Vd for the following compound: Cc1c(COC(=O)CN)c(=O)oc2c3c(ccc12)OC(C)(C)[C@H](OC(=O)[C@@]12CCC(C)(C(=O)O1)C2(C)C)[C@@H]3OC(=O)[C@@]12CCC(C)(C(=O)O1)C2(C)C (relative stereo) [Compound 9]
0.467

Return Vd for the following compound: Cc1c(COC(=O)C(C)N)c(=O)oc2c3c(ccc12)OC(C)(C)[C@H](OC(=O)[C@@]12CCC(C)(C(=O)O1)C2(C)C)[C@@H]3OC(=O)[C@@]12CCC(C)(C(=O)O1)C2(C)C (relative stereo) [Compound 10]
0.045
